All values here come from the supplement of paper PMC11451515.

Documented cell viability across a set of compounds
test system: SEM cells; test: cell viability relative to DMSO control; higher = less cytotoxic; conditions: HPLM + 10% dialyzed FBS; 48 h; 0.00234 µM
Expressed in %, but write only the number.

Below, 5 compounds whose answers are already recorded.
Compound	cell viability [%]
CCOC(=O)N1CCN(/[N+]([O-])=N/Oc2cc(O/N=[N+](\[O-])N3CCN(C(=O)OCC)CC3)c([N+](=O)[O-])cc2[N+](=O)[O-])CC1	86.6
NC(=O)c1cnccn1	116
CN1CC[C@H]([C@@H](O)C1)C2=C(O)C=C(O)C3=C2O\C(=C/C3=O)C4=CC=CC=C4Cl	121
Cc1nc(-c2ccc(OCC(C)C)c(C#N)c2)sc1C(=O)O	110
Oc1ccc(OCc2ccccc2)cc1	106

Query: cell viability; subject: `COc1ccccc1[C@H](c1cccc2ccccc12)[C@@](C)(C#N)C(=O)N1CCC(c2cccc(C(F)(F)F)c2)CC1`
103

Query: cell viability; subject: `N#C/C(=C(/N)Sc1ccc(N)cc1)c1ccccc1C(F)(F)F`
141

Query: cell viability; subject: `C/C1=C2/[N]3[Co+]456([OH])<-[N]7=C1[C@@H](CCC(N)=O)C(C)(C)/C7=C/C1=[N]->4C(=C(/C)C4=[N]->5[C@@](C)([C@H]3[C@H](CC(N)=O)[C@@]2(C)CCC(=O)NC[C@@H](C)OP(=O)([O-])O[C@H]2[C@@H](O)[C@@H](n3c[n]->6c5cc(C)c(C)cc53)O[C@@H]2CO)[C@@](C)(CC(N)=O)[C@@H]4CCC(N)=O)/[C@@](C)(CC(N)=O)[C@@H]1CCC(N)=O`
90.7

Query: cell viability; subject: CCC(C)CCCCC(=O)N[C@@H](CCN)C(=O)NC(C(=O)N[C@H](CCN)C(=O)N[C@@H]1CCNC(=O)C([C@@H](C)O)NC(=O)[C@@H](CCN)NC(=O)[C@@H](CCN)NC(=O)[C@@H](CC(C)C)NC(=O)[C@H](Cc2ccccc2)NC(=O)[C@H](CCN)NC1=O)[C@@H](C)O (some centres undefined)
85.8

Query: cell viability; subject: CCNC(=O)CCC/C=C\C[C@@H]1[C@@H](/C=C/C(O)CCc2ccccc2)[C@@H](O)C[C@@H]1O (some centres undefined)
116

Query: cell viability; subject: `CN1C(=O)c2sccc2N(C)c2nc(Nc3ccc([S+](N)(=O)[O-])cc3)ncc21`
93.2

Query: cell viability; subject: `COc1cc(NCc2ccc3nc(N)nc(N)c3c2C)cc(OC)c1OC`
89.2

Query: cell viability; subject: `C[C@H](CCC(=O)O)[C@H]1CC[C@H]2[C@@H]3[C@H](O)C[C@@H]4C[C@H](O)CC[C@]4(C)[C@H]3CC[C@]12C`
80.7

Query: cell viability; subject: `Nc1n[nH]c2nnc(-c3c(-c4ccccc4)nn4ccccc34)cc12`
109

* * *

Documented cell viability across a set of compounds
tested on: P12-Ichikawa; assay: cell viability relative to DMSO control; higher = less cytotoxic; conditions: RPMI 5 mM glucose + 10% FBS; 48 h; 0.000781 µM
Expressed in %, but write only the number.

Compound	System Under Test	cell viability (%)
C/C1=C2/[N]3[Co+]456([OH])<-[N]7=C1[C@@H](CCC(N)=O)C(C)(C)/C7=C/C1=[N]->4C(=C(/C)C4=[N]->5[C@@](C)([C@H]3[C@H](CC(N)=O)[C@@]2(C)CCC(=O)NC[C@@H](C)OP(=O)([O-])O[C@H]2[C@@H](O)[C@@H](n3c[n]->6c5cc(C)c(C)cc53)O[C@@H]2CO)[C@@](C)(CC(N)=O)[C@@H]4CCC(N)=O)/[C@@](C)(CC(N)=O)[C@@H]1CCC(N)=O	P12-Ichikawa	97.5
CC(=O)OC[C@@H]1O[C@H]([C@H](OC(C)=O)[C@@H]1OC(C)=O)N2\C=C/C(=O)NC2=O	P12-Ichikawa	121
Nc1ccc(C(=O)c2cc3c(ccc4ccccc43)[nH]2)cc1	P12-Ichikawa	118
CO[C@@H](C(=O)N1Cc2[nH]nc(NC(=O)c3ccc(N4CCN(C)CC4)cc3)c2C1)c1ccccc1	P12-Ichikawa	90
O=C(c1cncc(Br)c1)N1CCC(N2CCCC2)CC1	P12-Ichikawa	93.6
C[C@]12CC[C@H]3[C@@H](CC(=C)\C4=C\C(=O)\C=C/[C@]34C)[C@@H]1CCC2=O	P12-Ichikawa	96.3
Cc1ccc2nc(NCCN)c3ncc(C)n3c2c1	P12-Ichikawa	97.8
COC1=CC=C(C=C1)/C2=C(O)/C(=O)C3=C(O)C=C(O)C(=C3O2)CC=C(C)C	P12-Ichikawa	108
C[S+](=O)([O-])Oc1ccc2c(NC(N)=O)c(C(=O)c3ccc(Cl)cc3Cl)oc2c1	P12-Ichikawa	112
CCCOc1ccc(C(=O)OCCN(CC)CC)cc1N	P12-Ichikawa	104

Query: cell viability; subject: `CNC(=O)c1ccc2c(c1)NC(=O)/C2=C(\Nc1cccc(CN(C)C)c1)c1ccccc1`
87.3

Query: cell viability; subject: CCC(CCCC)COC(=O)C(\C#N)=C(\c1ccccc1)c2ccccc2 (stereo unspecified)
89.8

Query: cell viability; subject: `COc1c(Cl)cc2c([nH]c3cnccc32)c1NC(=O)c1cccnc1C`
107

Query: cell viability; subject: `NC(=O)c1cccc(-c2cc(Nc3ccc(OC(F)(F)F)cc3)ncn2)c1`
102

Query: cell viability; subject: `CNc1nc(-c2ccc3c(N)n[nH]c3c2)cc(N2C[C@@H](C(=O)NC3CCCCC3)CC[C@H]2C)n1`
76.7

Query: cell viability; subject: `N[S+](=O)([O-])c1ccc(Nc2nc(OCC3CCCCC3)c3[nH]cnc3n2)cc1`
117

Query: cell viability; subject: CCC(C)CCCCC(=O)N[C@@H](CCN)C(=O)NC(C(=O)N[C@H](CCN)C(=O)N[C@@H]1CCNC(=O)C([C@@H](C)O)NC(=O)[C@@H](CCN)NC(=O)[C@@H](CCN)NC(=O)[C@@H](CC(C)C)NC(=O)[C@H](Cc2ccccc2)NC(=O)[C@H](CCN)NC1=O)[C@@H](C)O (stereo partly specified)
114

Query: cell viability; subject: `Oc1ccc(OCc2ccccc2)cc1`
114

Query: cell viability; subject: `CN(C)c1nc(Cc2ccc(NC(=O)c3ccc(C(F)(F)F)cc3)cc2)nc(N(C)C)c1CC(=O)O`
106

* * *

tested on: SEM cells; assay: cell viability relative to DMSO control; higher = less cytotoxic; details: RPMI 5 mM glucose + 10% dialyzed FBS; 48 h; 0.0632 µM
Documented cell viability across a set of compounds
Expressed in %, but write only the number.

Query: cell viability; subject: `Cc1cn2cc(C(=O)N(C)CCO)cc(N[C@@H]3CCOc4cccc(C)c43)c2n1`
95.3

* * *

Documented cell viability across a set of molecules
system: SEM cells; assay: cell viability relative to DMSO control; higher = less cytotoxic; settings: HPLM + 10% dialyzed FBS; 48 h; 5.12 µM
Expressed in %, but write only the number.

Below, 5 molecules whose answers are already recorded.
Molecule	System Under Test	cell viability, %
OC1=CC=C(C=C1)C/2=C/C3=C(OC2)C=C(O)C=C3	SEM cells	21.2
C[C@H](NC(=O)Cc1cc(F)cc(F)c1)C(=O)N[C@H](C(=O)OC(C)(C)C)c1ccccc1	SEM cells	79.7
O=C(c1cncc(Br)c1)N1CCC(N2CCCC2)CC1	SEM cells	114
Nc1ccc(C(=O)Nc2cccc(-c3nc(N4CCOCC4)c4oc5ncccc5c4n3)c2)cn1	SEM cells	90.1
CC/C=C\C[C@H]1C(=O)CC[C@@H]1CC(=O)OC	SEM cells	113

Query: cell viability; subject: `Cc1nc(-c2ccc(OCC(C)C)c(C#N)c2)sc1C(=O)O`
106

Query: cell viability; subject: COc1cc2nc(N3CCN(C(=O)C4COc5ccccc5O4)CC3)nc(N)c2cc1OC (centres undefined)
120

Query: cell viability; subject: `N#C/C(=C(/N)Sc1ccc(N)cc1)c1ccccc1C(F)(F)F`
85.4

Query: cell viability; subject: CCC(CCCC)COC(=O)C(\C#N)=C(\c1ccccc1)c2ccccc2 (centres undefined)
110

Query: cell viability; subject: `Oc1ccc(OCc2ccccc2)cc1`
92.5

Query: cell viability; subject: `CN1C(=O)/C(=C(NC2=CC=C(I)C=C2F)\C3=C1\N=C/N(C[C@@H](O)CO)C3=O)F`
65.6

Query: cell viability; subject: `CCCN[C@H]1CCc2nc(N)sc2C1`
104

Query: cell viability; subject: `CC(=O)SC[C@@H](C)C(=O)N1CCC[C@H]1C(=O)N[C@@H](Cc1ccccc1)C(=O)O`
107

Query: cell viability; subject: `O=C(O)c1cc(O)c2c(c1)C(=O)c1cccc(O)c1C2=O`
96.8
